# Species on record: Rattus norvegicus
# Protocol description: Open TG-GATES - Regimen: Daily Repeat
# Assay type: toxicity, organism-based, Sprague-Dawley
# Parameters: regimen Daily Repeat, gender Male, age 6 weeks
# Experimental context: in vivo, po, 0 mg/kg, 72 h, tissue Blood, route gavage, dose level Control, time 3 day
Reported RBC values for the following molecules.
Value type: RBC (x10_4/ul)

Molecule: CN1C(C(=O)Nc2ccccn2)=C(O)c2sc(Cl)cc2S1(=O)=O
Reported result: 617

Molecule: CC(CN1c2ccccc2Sc2ccccc21)N(C)C (stereo not given)
Reported result: 647.8

Molecule: CN(C)[C@@H]1C(O)=C(C(N)=O)C(=O)[C@@]2(O)C(O)=C3C(=O)c4c(O)cccc4[C@@](C)(O)[C@H]3C[C@@H]12
Reported result: 625

Molecule: C1CCC(C(CC2CCCCN2)C2CCCCC2)CC1 (stereo not given)
Reported result: 613.6

Molecule: CC(=O)Nc1nnc(S(N)(=O)=O)s1 [ACETAZOLAMIDE]
Reported result: 628.2

FYI, the data here is from ChEMBL document CHEMBL3885861.
